Reference source for all entries: paper PMC9979163

# tested_target: ZAC (Homo sapiens)
# Sequence (Q401N2 26-412): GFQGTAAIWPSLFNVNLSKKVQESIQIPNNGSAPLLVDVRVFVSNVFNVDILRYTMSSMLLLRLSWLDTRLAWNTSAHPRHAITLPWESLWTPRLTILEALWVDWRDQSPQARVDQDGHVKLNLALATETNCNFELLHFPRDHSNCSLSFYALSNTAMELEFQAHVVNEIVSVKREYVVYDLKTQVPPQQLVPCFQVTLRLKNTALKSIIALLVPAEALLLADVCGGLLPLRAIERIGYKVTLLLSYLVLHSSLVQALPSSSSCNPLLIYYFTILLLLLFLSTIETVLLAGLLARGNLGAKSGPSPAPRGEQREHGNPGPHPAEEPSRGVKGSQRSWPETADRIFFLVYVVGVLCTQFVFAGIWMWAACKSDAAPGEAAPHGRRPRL
# assay_protocol: TEVC recordings, H+-evoked currents at ZAC expressed in Xenopus oocytes
# Assay type: cell-based
# recorded_conditions: H+ (pH 6.0) as agonist, TEVC, steady-state current, n = 6
measured_property: pIC50
Give bare numbers, as −log10 of the molar value.

Can you look up pIC50 on ZAC (Homo sapiens) for CC(C)(C)c1csc(NC(=O)c2cccc(F)c2)n1 ?
5.07

====

# tested_target: ZAC (Homo sapiens)
# Sequence (Q401N2 26-412): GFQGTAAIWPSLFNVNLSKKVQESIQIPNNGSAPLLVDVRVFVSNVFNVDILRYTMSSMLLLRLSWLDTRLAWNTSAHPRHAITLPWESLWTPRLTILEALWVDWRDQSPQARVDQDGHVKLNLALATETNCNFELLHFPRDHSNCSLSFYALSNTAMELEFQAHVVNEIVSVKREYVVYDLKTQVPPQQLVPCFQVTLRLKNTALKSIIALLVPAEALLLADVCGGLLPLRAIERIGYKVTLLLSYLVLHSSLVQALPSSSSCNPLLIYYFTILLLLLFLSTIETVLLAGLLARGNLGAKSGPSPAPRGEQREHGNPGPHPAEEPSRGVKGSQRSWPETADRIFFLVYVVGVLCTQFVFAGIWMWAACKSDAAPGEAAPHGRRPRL
# assay_protocol: TEVC recordings, Zn2+-evoked currents at ZAC expressed in Xenopus oocytes
# Type: cell-based
# recorded_conditions: Zn2+ (1 mM) as agonist, TEVC, steady-state current; read-out: pIC50 ± S.E.M. (converted)
measured_property: IC50 (nM)
Numbers only, in nM.

| smiles_structure | observed_measurement |
| --- | --- |
| CC(C)(C)c1csc(NC(=O)c2cc(Br)ccc2Cl)n1 | 1320 |
| COC(=O)c1sc(NC(=O)c2cc(Br)ccc2Cl)nc1C | 4070 |
| COC(=O)c1sc(NC(=O)c2cccc(I)c2)nc1C | 1020 |

For CC(C)(C)c1csc(NC(=O)c2cccc(F)c2)n1 , what is its reported IC50?
3020

====

# tested_target: ZAC (Homo sapiens, UniProt Q401N2)
# Sequence (Q401N2 26-412): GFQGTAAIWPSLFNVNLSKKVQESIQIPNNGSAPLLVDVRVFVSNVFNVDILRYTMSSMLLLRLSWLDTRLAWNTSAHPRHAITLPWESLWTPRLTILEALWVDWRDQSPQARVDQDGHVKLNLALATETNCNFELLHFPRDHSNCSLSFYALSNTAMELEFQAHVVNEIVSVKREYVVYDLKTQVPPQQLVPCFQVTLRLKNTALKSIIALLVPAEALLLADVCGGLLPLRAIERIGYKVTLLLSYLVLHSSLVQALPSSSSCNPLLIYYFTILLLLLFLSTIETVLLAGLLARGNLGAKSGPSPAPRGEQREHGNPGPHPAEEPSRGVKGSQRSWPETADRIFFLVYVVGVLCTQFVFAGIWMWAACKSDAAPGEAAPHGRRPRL
# assay_protocol: TEVC recordings, Zn2+-evoked currents at ZAC expressed in Xenopus oocytes
# Format: cell-based
# recorded_conditions: 1 mM Zn2+ as agonist, tested at three concentrations (0.3-3-30 μM or 1-10-100 μM)
measured_property: Antagonist activity at ZAC in SAR study (in words)

// below: answered compounds
| smiles_structure | observed_measurement |
| --- | --- |
| CCOC(=O)c1sc(NC(=O)c2cc(OC)c(OC)c(OC)c2)nc1C | essentially inactive |
| CCc1nc(NC(=O)c2cccc(Br)c2)sc1C(=O)OC | inactive |
| CC(=O)c1sc(NC(=O)c2cc(F)c(F)cc2Cl)nc1C | inactivity |
| CCOC(=O)c1sc(NC(=O)c2cccnc2)nc1C | inactive |

Field: Antagonist activity at ZAC in SAR study (in words). Fill in for each record below.
1. CCOC(=O)Cc1csc(NC(=O)c2cc(Cl)cc(Cl)c2)n1
2. COC(=O)c1sc(NC(=O)c2ccccc2C)nc1C
3. CCOC(=O)c1sc(NC(=O)c2cc(Cl)cc(Cl)c2)nc1C
4. Cc1cnc(NC(=O)c2cc(Br)ccc2Cl)s1
5. Cc1cnc(NC(=O)c2cc(F)c(F)cc2Cl)s1

["inactivity", "essentially inactive", "inactive", "inactivity", "inactivity"]

Answer for every listed entry: what is its Antagonist activity at ZAC in SAR study (in words)? The entries follow.
1. C=CCN(CC=C)S(=O)(=O)c1ccc(C(=O)Nc2nc(C)c(C(=O)OCC)s2)cc1
2. CCOC(=O)c1sc(NC(=O)c2ccco2)nc1C

inactive
inactive

====

# tested_target: ZAC (Homo sapiens, UniProt Q401N2)
# assay_protocol: FMP assay at ZAC-HEK293 cells
# Type: cell-based
# Protocol: The screening of the 1,680 compounds in the compound library for antagonist activity at the ZAC-HEK293 cell line was performed in the FMP assay essentially as previously described. […] The plate was then incubated at 37 °C for 30 min and assayed in a NOVOStar plate reader (BMG Labtechnologies, Offenburg, Germany) measuring emission at 560 nm caused by excitation at 530 nm before and up to 1 min after the addition of 33 μl of agonist solution. […]
measured_property: IC50 (µM)
Answers are plain numbers, in µM.

// map COC(=O)c1sc(NC(=O)c2cc(Br)ccc2Cl)nc1C [compound 1] to recorded IC50 (system: ZAC (Homo sapiens, UniProt Q401N2))
6.1

====

# tested_target: UniProt:Q401N2
# Sequence (Q401N2 26-412): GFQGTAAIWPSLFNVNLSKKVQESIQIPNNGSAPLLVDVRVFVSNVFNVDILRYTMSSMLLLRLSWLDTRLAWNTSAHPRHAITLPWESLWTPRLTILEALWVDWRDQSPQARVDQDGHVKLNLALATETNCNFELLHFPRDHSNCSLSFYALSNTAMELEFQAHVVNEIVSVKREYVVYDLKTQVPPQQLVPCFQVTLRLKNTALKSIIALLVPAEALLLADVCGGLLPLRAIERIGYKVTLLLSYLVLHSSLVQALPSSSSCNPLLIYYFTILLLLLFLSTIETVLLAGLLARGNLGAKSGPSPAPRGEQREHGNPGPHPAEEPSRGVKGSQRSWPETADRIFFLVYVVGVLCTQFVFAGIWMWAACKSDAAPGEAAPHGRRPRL
# assay_protocol: TEVC recordings, Zn2+-evoked currents at ZAC expressed in Xenopus oocytes
# Type: cell-based
# recorded_conditions: 1 mM Zn2+ as agonist, tested at three concentrations (0.3-3-30 μM or 1-10-100 μM)
measured_property: Antagonist activity at ZAC in SAR study (in words)

| molecule | observed_measurement |
| --- | --- |
| CCOc1ccc(C(=O)Nc2nc(C)c(C(=O)OC)s2)cc1Br [4g] | inactive |
| O=C(Nc1ncc([N+](=O)[O-])s1)c1cccc(Br)c1 [3f] | weaker antagonists |
| CCOC(=O)c1sc(NC(=O)c2ccccc2Cl)nc1C [4i] | inactive |
| COC(=O)c1sc(NC(=O)c2ccc(C)cc2)nc1C [4b] | essentially inactive |
| COc1cc(C(=O)Nc2nc(C(C)(C)C)cs2)cc(OC)c1OC [5i] | essentially inactive |
| CCOC(=O)c1sc(NC(=O)c2cc(Cl)ccc2OC)nc1C [4k] | inactive |

Switching to the query record.
Which value of Antagonist activity at ZAC in SAR study (in words) has been reported for COC(=O)c1sc(NC(=O)c2cc(Br)ccc2Cl)nc1C [compound 1] in the records?
weaker antagonists

====

I'd be grateful if you could share measured pIC50 for these entries.
# tested_target: ZAC (Homo sapiens, UniProt Q401N2)
# Sequence (Q401N2 26-412): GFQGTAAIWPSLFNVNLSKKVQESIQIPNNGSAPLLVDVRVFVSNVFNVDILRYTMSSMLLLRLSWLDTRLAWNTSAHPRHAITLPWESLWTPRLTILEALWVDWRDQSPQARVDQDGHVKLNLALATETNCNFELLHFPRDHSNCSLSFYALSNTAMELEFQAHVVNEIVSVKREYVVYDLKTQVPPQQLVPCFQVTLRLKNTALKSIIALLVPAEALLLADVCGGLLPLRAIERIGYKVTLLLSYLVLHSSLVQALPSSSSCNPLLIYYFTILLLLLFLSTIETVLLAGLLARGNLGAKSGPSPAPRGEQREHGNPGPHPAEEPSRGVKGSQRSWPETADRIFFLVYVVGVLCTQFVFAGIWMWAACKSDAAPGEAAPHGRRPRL
# assay_protocol: TEVC recordings, spontaneous ZAC activity in Xenopus oocytes
# Type: cell-based
# recorded_conditions: block of spontaneous ZAC activity (leak current), TEVC; read-out: IC50
One number for each entry, as −log10 of the molar value.

| compound | observed_measurement |
| --- | --- |
| COC(=O)c1sc(NC(=O)c2cc(Br)ccc2Cl)nc1C [compound 1] | 5.13 |

Given the entry CC(C)(C)c1csc(NC(=O)c2cccc(F)c2)n1 [5a] , report its measured pIC50.
5.33
